Assay: in vitro
Settings: mouse, liver microsomes
Mark N for CLhep predicted values under 60 mL/min/kg, and Y for everything at or above.

smiles-text	label-value
N#Cc1cc(F)c(C(=O)Nc2ccnc(NC(=O)[C@H]3C[C@H]3F)c2)c(Cl)c1	N
O=C(Nc1ccnc(NC(=O)C2CC2)c1)c1c(Cl)cccc1Cl	Y
N#Cc1cc(Cl)c(C(=O)Nc2ccnc(NC(=O)[C@H]3C[C@H]3F)c2)c(Cl)c1	N
O=C(Nc1ccnc(NC(=O)[C@H]2C[C@H]2F)c1)c1c(F)cccc1Cl	Y
O=C(Nc1ccnc(NC(=O)[C@H]2C[C@H]2F)c1)c1c(Cl)cccc1Cl	N
N#Cc1cc(Cl)c(C(=O)Nc2ccnc(NC(=O)C3CC3)c2)c(Cl)c1	N
